The next entries give measured IC50 for Fungal ACC2 (UniProt Q00955).

Ask: If you can, please state the reported IC50 value of COCCO[C@@H](Cn1c(=O)n(C2CCCNC2=O)c(=O)c2c(C)c(-n3nccn3)sc21)c1cc(F)ccc1OC (stereo partly drawn) .
Result: 0.7 to 2 nM

Ask: Could you do the same for `COCCO[C@@H](Cn1c(=O)n([C@H]2CCCN(C)C2=O)c(=O)c2c(C)c(-n3nccn3)sc21)c1cc(F)ccc1OC` , please?
Result: 0.7 to 2 nM

Ask: Could you do the same for `COc1ccc(F)cc1[C@H](Cn1c(=O)n([C@@H]2CCCNC2=O)c(=O)c2c(C)c(-n3nccn3)sc21)OCCC(=O)O` , please?
Result: 0.7 to 2 nM

Ask: Could you do the same for `COCCO[C@@H](Cn1c(=O)n([C@@H]2CCCNC2=O)c(=O)c2c(C)c(-n3cccn3)sc21)c1cc(F)ccc1OC` , please?
Result: 10 to 100 nM

Ask: Could you do the same for `COc1ccc(F)cc1[C@H](COc1nc2sc(-n3nccn3)c(C)c2c(=O)n1[C@@H]1CNC(=O)C1)OCCO` , please?
Result: 10 to 100 nM

Ask: Could you do the same for `COc1ccc(F)cc1[C@H](Cn1c(=O)n([C@H]2CCN(C(=O)C(C)C)C2)c(=O)c2c(C)c(-n3nccn3)sc21)OCCO` , please?
Result: 0.7 to 2 nM
